- assay.method.text: 14-day oral gavage toxicokinetic study in rats
- Format: in vivo
- measurement.context: both sexes, rat, plasma, po, 5 mg/kg, Mean Compound 1 Plasma Concentration, rats, oral 5 mg/kg, Day 14, 12 h, Overall
experimental.endpoint: concentration at 12 h

Ask: Report concentration at 12 h for CN1CCN(c2ccc(Nc3ncc4cc5n(c4n3)C3(CCCCC3)CNC5=O)nc2)CC1 please.
Reply: 151 ng/mL

* * *

- assay.method.text: 14-day oral gavage toxicokinetic study in rats
- Assay type: in vivo
- measurement.context: male, rat, plasma, po, 5 mg/kg, oral 5 mg/kg, Study Day 14, Male
experimental.endpoint: AUC(0-t)
Remember to put the unit after the number in your answer.

Ask: Form field: reported AUC(0-t) of CN1CCN(c2ccc(Nc3ncc4cc5n(c4n3)C3(CCCCC3)CNC5=O)nc2)CC1 [Compound 1]
Reply: 5030 ng·h/mL

* * *

- assay.method.text: Single escalating dose IV infusion pharmacokinetics in healthy volunteers (noncompartmental)
- Format: in vivo, human
- measurement.context: both sexes, human, plasma, iv, 12 mg/m^2, Compound 1 Concentration, Cohort 2, 12 mg/m^2 IV; Time 0.25 h; r7-9=Subjects 1-3,r11=Mean,r13=Min,r14=Median,r15=Max,r17=Geometric Mean
experimental.endpoint: concentration at 0.25 h (ng/mL)
Express it in ng/mL; write the number only.

Ask: Report concentration at 0.25 h for CN1CCN(c2ccc(Nc3ncc4cc5n(c4n3)C3(CCCCC3)CNC5=O)nc2)CC1 [Compound 1] please.
Reply: 115

* * *

- assay.method.text: 14-day oral gavage toxicokinetic study in rats
- Format: in vivo
- measurement.context: male, rat, plasma, po, 2 mg/kg, Mean Compound 1 Plasma Concentration, rats, oral 2 mg/kg, Day 14, 0.5 h, Male
experimental.endpoint: concentration at 0.5 h
Give the figure together with its unit, number first.

Ask: Dear colleague, I am looking for the recorded concentration at 0.5 h of the following compound: CN1CCN(c2ccc(Nc3ncc4cc5n(c4n3)C3(CCCCC3)CNC5=O)nc2)CC1
Reply: 47 ng/mL

* * *

- assay.method.text: 14-day oral gavage toxicokinetic study in rats
- Type: in vivo
- measurement.context: female, rat, plasma, po, 5 mg/kg, Individual Compound 1 Plasma Concentration, rats, daily oral 5 mg/kg, Day 1, Female, 0.5 h
experimental.endpoint: concentration at 0.5 h (ng/mL)
Quick reminder: number only, in ng/mL, skip the unit.

Ask: Form field: reported concentration at 0.5 h of CN1CCN(c2ccc(Nc3ncc4cc5n(c4n3)C3(CCCCC3)CNC5=O)nc2)CC1
Reply: 246

* * *

- assay.method.text: Topotecan PK following Compound 1 infusion
- Assay type: in vivo, human
- measurement.context: human, plasma, intravenous, Topotecan 1.25 mg/m^2 (Cohort 2) with Compound 1 200 mg/m^2, Day 1, Mean; read-out: AUC24.5
experimental.endpoint: AUC (ng·h/mL)
Dear colleague, please return just the value in ng·h/mL, with no unit written.

Ask: Value lookup for AUC; key = CC[C@@]1(O)C(=O)OCc2c1cc1n(c2=O)Cc2cc3c(CN(C)C)c(O)ccc3nc2-1.Cl [topotecan]
Reply: 175

* * *

- assay.method.text: Topotecan PK following Compound 1 infusion
- Assay type: in vivo, human
- measurement.context: human, plasma, intravenous, Topotecan 0.75 mg/m^2 (Cohort 3) with Compound 1 200 mg/m^2, Day 1, Median; read-out: t½ (converted)
experimental.endpoint: half-life (h)
Report the value in h with no unit label.

Ask: If you can, please state the reported half-life value of CC[C@@]1(O)C(=O)OCc2c1cc1n(c2=O)Cc2cc3c(CN(C)C)c(O)ccc3nc2-1.Cl [topotecan] .
Reply: 4.3

* * *

- assay.method.text: 14-day oral gavage toxicokinetic study in rats
- Format: in vivo
- measurement.context: female, rat, plasma, po, 5 mg/kg, Mean Compound 1 Plasma Concentration, rats, oral 5 mg/kg, Day 1, 24 h, Female
experimental.endpoint: concentration at 24 h
Output should be the measured figure followed by the unit it is expressed in.

Ask: concentration at 24 h lookup needed for CN1CCN(c2ccc(Nc3ncc4cc5n(c4n3)C3(CCCCC3)CNC5=O)nc2)CC1 , thanks.
Reply: 18.6 ng/mL

* * *

- assay.method.text: 14-day oral gavage toxicokinetic study in rats
- Format: in vivo
- measurement.context: both sexes, rat, plasma, po, 15 mg/kg, oral 15 mg/kg, Study Day 1, Overall; read-out: t½ (converted)
experimental.endpoint: half-life (h)
Numbers only; they are read as h.

Ask: Param item = CN1CCN(c2ccc(Nc3ncc4cc5n(c4n3)C3(CCCCC3)CNC5=O)nc2)CC1 [Compound 1] ; retrieve measured half-life.
Reply: 4.05

* * *

- assay.method.text: Single escalating dose IV infusion pharmacokinetics in healthy volunteers (noncompartmental)
- Format: in vivo, human
- measurement.context: both sexes, human, plasma, iv, 12 mg/m2, Cohort 2, 12 mg/m^2 IV; r6-8=Subjects 1-3,r10=Mean,r12=Min,r13=Median,r14=Max,r16=Geometric Mean; read-out: AUCinf
experimental.endpoint: AUC(0-inf) (ng·h/mL)
Answer in ng·h/mL, number only, no unit symbol.

Ask: I would be grateful if you could share the reported AUC(0-inf) for CN1CCN(c2ccc(Nc3ncc4cc5n(c4n3)C3(CCCCC3)CNC5=O)nc2)CC1 .
Reply: 148

* * *

- assay.method.text: 14-day oral gavage toxicokinetic study in rats
- Assay type: in vivo
- measurement.context: male, rat, plasma, po, 30 mg/kg, Mean Compound 1 Plasma Concentration, rats, oral 30 mg/kg, Day 1, 24 h, Male
experimental.endpoint: concentration at 24 h (ng/mL)
# value in ng/mL; strip the unit string

Ask: What value of measured concentration at 24 h is listed for CN1CCN(c2ccc(Nc3ncc4cc5n(c4n3)C3(CCCCC3)CNC5=O)nc2)CC1 ?
Reply: 234

* * *

- assay.method.text: Compound 1 PK dosed Days 1-3 with etoposide and carboplatin
- Format: in vivo, human
- measurement.context: human, plasma, intravenous, 200 mg/m2, 200 mg/m^2 with etoposide and carboplatin; Day 3; mean; read-out: Half-lives averaged (converted)
experimental.endpoint: half-life (h)
Your answer should be a plain number; it is taken to be in h.

Ask: Could you tell me which half-life is on file for CN1CCN(c2ccc(Nc3ncc4cc5n(c4n3)C3(CCCCC3)CNC5=O)nc2)CC1 [Compound 1] ?
Reply: 9.04

* * *

- assay.method.text: Single escalating dose IV infusion pharmacokinetics in healthy volunteers (noncompartmental)
- Type: in vivo, human
- measurement.context: both, human, plasma, iv, […]2, Cohort 6, […]^2 IV; median; read-out: median Tmax
experimental.endpoint: Tmax
Lab note: write values as number then unit, every time.

Ask: Give the measured Tmax of CN1CCN(c2ccc(Nc3ncc4cc5n(c4n3)C3(CCCCC3)CNC5=O)nc2)CC1 .
Reply: 30 min

* * *

- assay.method.text: 14-day oral gavage toxicokinetic study in rats
- Type: in vivo
- measurement.context: both sexes, rat, plasma, po, 30 mg/kg, oral 30 mg/kg, Study Day 1, Overall
experimental.endpoint: AUC(0-t) (µg·h/mL)
Use µg·h/mL as the unit, but write only the number.

Ask: Quick one: AUC(0-t) of CN1CCN(c2ccc(Nc3ncc4cc5n(c4n3)C3(CCCCC3)CNC5=O)nc2)CC1 ?
Reply: 37.5

* * *

- assay.method.text: 14-day oral gavage toxicokinetic study in rats
- Format: in vivo
- measurement.context: female, rat, plasma, po, 30 mg/kg, oral 30 mg/kg, Study Day 1, Female; read-out: t½ (converted)
experimental.endpoint: half-life (h)
Your answer should be a plain number; it is taken to be in h.

Ask: Report half-life for CN1CCN(c2ccc(Nc3ncc4cc5n(c4n3)C3(CCCCC3)CNC5=O)nc2)CC1 [Compound 1] please.
Reply: 4.92

* * *

- assay.method.text: Compound 1 PK dosed Days 1-3 with etoposide and carboplatin
- Type: in vivo, human
- measurement.context: human, plasma, intravenous, 200 mg/m2, 200 mg/m^2 with Etoposide and Carboplatin, Day 1, Mean; read-out: Cmax
experimental.endpoint: Cmax (ng/mL)
Provide only the numeric value, understood in ng/mL.

Ask: Endpoint output: Cmax of CN1CCN(c2ccc(Nc3ncc4cc5n(c4n3)C3(CCCCC3)CNC5=O)nc2)CC1 . Value?
Reply: 1200

* * *

- assay.method.text: 14-day oral gavage toxicokinetic study in rats
- Type: in vivo
- measurement.context: both sexes, rat, plasma, po, 15 mg/kg, Mean Compound 1 Plasma Concentration, rats, oral 15 mg/kg, Day 14, 2 h, Overall
experimental.endpoint: concentration at 2 h (ng/mL)
Just the number in ng/mL, nothing appended.

Ask: I have this compound here, CN1CCN(c2ccc(Nc3ncc4cc5n(c4n3)C3(CCCCC3)CNC5=O)nc2)CC1 [Compound 1] , and I need its recorded concentration at 2 h.
Reply: 1410

* * *

- assay.method.text: Single escalating dose IV infusion pharmacokinetics in healthy volunteers (noncompartmental)
- Format: in vivo, human
- measurement.context: both sexes, human, plasma, iv, 96 mg/m2, Cohort 5, 96 mg/m^2 IV; mean; read-out: AUCinf averaged
experimental.endpoint: AUC(0-inf) (ng·h/mL)
# value in ng·h/mL; strip the unit string

Ask: Please give the measured AUC(0-inf) for this compound: CN1CCN(c2ccc(Nc3ncc4cc5n(c4n3)C3(CCCCC3)CNC5=O)nc2)CC1 [Compound 1]
Reply: 1320

src = patent US20160220569A1
